System: HMLE_sh_eGFP viability, CellTiter-Glo luminescence, 72 h
Experiment: cytotoxicity in HMLE control line with eGFP shRNA, dose response, counter-screen for HMLE_sh_ECad selective toxicity project, cell-based, HMLE_sh_eGFP, luminescence (AID 463074);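 also: counterscreen control line to flag general toxicity for the HMLE_sh_ECad screen; potency for loss of viability as luminescence drops below DMSO wells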;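 active = AC50 no more than tenfold above the top dose tested, or full inhibition at every dose with a flat fit (cut at about 19 µM in these data); inconclusive = flat curve fit with inhibition between 30% and 70%, or poor fit; inactive = AC50 more than tenfold above the top dose tested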
Write down the outcome that applies. Available outcomes: class 1 for active, class 0 for inactive

Field: example entries. Status: answers known.
{"compound": "CC(Nc1nc(-c2ccccc2)nc2ccccc12)c1ccccc1 (stereo not given)", "target_desc": "HMLE_sh_eGFP viability, CellTiter-Glo luminescence, 72 h", "class": "class 1"}
{"compound": "CN1CCN(c2ccccc2NC(=O)c2ccc(-c3ccc(Cl)c(Cl)c3)o2)CC1", "target_desc": "HMLE_sh_eGFP viability, CellTiter-Glo luminescence, 72 h", "class": "class 1"}

Now examine the next entry.
Short answer needed: outcome of this test for `COc1ccc(OC)c(Nc2c3ccccc3nc3ccccc23)c1` ? class 1

---

System: HMLE_sh_eGFP viability, CellTiter-Glo luminescence, 72 h
Assay: cytotoxicity in HMLE control line with eGFP shRNA, dose response, counter-screen for HMLE_sh_ECad selective toxicity project, cell-based, HMLE_sh_eGFP, luminescence (AID 463074);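 also: counterscreen control line to flag general toxicity for the HMLE_sh_ECad screen; potency for loss of viability as luminescence drops below DMSO wells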
endpoint_label: AC50

{"molecule": "O=c1[nH]c(=O)n(C2C[C@H](O)[C@@H](CO)O2)cc1C(F)(F)F (some centres undefined)", "AC50": "0.946 µM"}
{"molecule": "O=c1cc(N2CCCCC2)c(-c2ccccc2)nn1Cc1cccc(Cl)c1", "AC50": "4.56 µM"}
{"molecule": "O=C(Nc1ccc2c(c1)CCC2)c1cc(S(=O)(=O)Nc2ccc(F)cc2)c(Cl)cc1Cl", "AC50": "5.38 µM"}

Could you now look at the following molecule, please?
So, `O=C(/C(=C\c1ccccc1)c1nc2ccccc2[nH]1)c1ccc(Cl)cc1` ? Its AC50 was 3.27 µM

---

System: HMLE_sh_eGFP viability, CellTiter-Glo luminescence, 72 h
Test: cytotoxicity in HMLE control line with eGFP shRNA, dose response, counter-screen for HMLE_sh_ECad selective toxicity project, cell-based, HMLE_sh_eGFP, luminescence (AID 463074);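 also: counterscreen control line to flag general toxicity for the HMLE_sh_ECad screen; potency for loss of viability as luminescence drops below DMSO wells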
Active and inactive are the calls of the source.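 Rule for the calls: active = AC50 no more than tenfold above the top dose tested, or full inhibition at every dose with a flat fit (cut at about 19 µM in these data); inconclusive = flat curve fit with inhibition between 30% and 70%, or poor fit; inactive = AC50 more than tenfold above the top dose tested.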
Returns: one label drawn from true = active, false = inactive

{"compound": "Cc1cc2ccccn2c1C(=O)c1ccc([N+](=O)[O-])o1", "target_desc": "HMLE_sh_eGFP viability, CellTiter-Glo luminescence, 72 h", "class": "true"}
{"compound": "O=C(Nc1cccc(-c2csc(Nc3ccccc3)n2)c1)c1ccccc1", "target_desc": "HMLE_sh_eGFP viability, CellTiter-Glo luminescence, 72 h", "class": "true"}
{"compound": "CCn1c(=O)c([N+](=O)[O-])c(Cl)c2ccccc21", "target_desc": "HMLE_sh_eGFP viability, CellTiter-Glo luminescence, 72 h", "class": "true"}
{"compound": "CCOC(=O)N1C(=O)[C@@](c2ccc(Cl)cc2)(C(C)C)N1C(=O)OCC", "target_desc": "HMLE_sh_eGFP viability, CellTiter-Glo luminescence, 72 h", "class": "true"}

Which outcome did this test record for the compound `CN1CCN(c2ccc(NC(=O)c3ccc(Cl)cc3)cn2)CC1` ? false

Look up the recorded call for `COc1cc(-c2noc(C)c2C#Cc2ccccn2)cc(OC)c1OC` in this test. true

Please share the test call associated with NC(=O)CC(NC(=O)c1ccc(Br)cc1)c1ccc(N2CCCCCC2)c([N+](=O)[O-])c1 (stereo not drawn) . true

Query: recorded result category for `CC1CCN(S(=O)(=O)c2ccc3c(c2)C(=NO)c2cc(S(=O)(=O)N4CCC(C)CC4)ccc2-3)CC1` in this test true
